Where these numbers come from: ChEMBL document CHEMBL1201862

# Test system: NCI-H460
# measurementDescription: NCI tumour cell line growth inhibition, 48 h
The source made the active and inactive calls. Cut-off read from the data, not from the text of the source: active = GI50 up to about 1.1 µM and inactive = higher.
GI50 values, listed per item

compound: CCOC(=O)CCc1c(C)c2ccc(O)cc2oc1=O
measuredOn: NCI-H460
GI50: > 100 µM (inactive)
//
compound: CCOC(=O)c1cnc2oc(/C=N/N3CC(CN4CCOCC4)OC3=O)cc2c1O (centres undefined)
measuredOn: NCI-H460
GI50: > 100 µM (inactive)
//
compound: O=C(O)c1ccccc1NC(=S)c1ccccc1
measuredOn: NCI-H460
GI50: 53.2 µM (inactive)
//
compound: C[C@@H]1C[C@@]2(O[C@@H]2C)C(=O)O[C@@H]2CCN3CC=C(COC(=O)[C@]1(C)O)[C@H]23
measuredOn: NCI-H460
GI50: > 100 µM (inactive)

* * *

# Test system: XF498
# measurementDescription: NCI tumour cell line growth inhibition, 48 h
The source made the active and inactive calls. No stated cut-off is given here; in the data, active = GI50 up to about 1.1 µM and inactive = higher.
GI50 values, listed per item

compound: Cc1cc(=O)oc2cc(OCc3nc4ccccc4c(=O)[nH]3)ccc12
GI50: > 100 µM (inactive)
//
compound: Cc1cc(C)cc(-n2c3nc(=O)n(C)c(=O)c-3nc3ccccc32)c1
GI50: 36.3 µM (inactive)
//
compound: Oc1ccc(O)c(-n2cccn2)c1-n1cccn1
GI50: > 100 µM (inactive)
//
compound: NC(=S)N/N=C1/CN(c2ccc(Cl)c(Cl)c2)CC(=O)C1c1nc2ccccc2s1 (stereo not drawn)
GI50: > 100 µM (inactive)
//
compound: CCCc1c[nH]c(-c2ccc(-c3cc(CCC)c(C=O)[nH]3)s2)c1
GI50: 18.7 µM (inactive)
//
compound: O=C(CSc1nnc(-c2ccc(/N=C\c3ccc(Cl)cc3)cc2)o1)Nc1ccc([N+](=O)[O-])cc1
GI50: 22.9 µM (inactive)
//
compound: ClC(Cl)=C1C(=C(Cl)Cl)C(Cl)(Cl)C1(Cl)Cl
GI50: 9.2 µM (inactive)
//
compound: O=C1Nc2ccc(Cl)c(I)c2C1=O
GI50: 18.3 µM (inactive)

* * *

# Test system: TK-10
# measurementDescription: NCI tumour cell line growth inhibition, 48 h
Calls of active or inactive are those of the source. Cut-off read from the data, not from the text of the source: active = GI50 up to about 1.1 µM and inactive = higher.

molecule: CSc1c(C#N)c(S)[nH]c(=O)c1C#N
GI50: 23.2 µM (inactive)
--
molecule: CC(=O)Oc1c(C)cc2c(c1C)C(C)(C)CN2C(=O)C(C)(C)C
GI50: > 100 µM (inactive)
--
molecule: CC(C)(C)c1cc2c(O)c(c1)C(c1ccccc1)c1cc(C(C)(C)C)cc(c1O)Cc1cc(C(C)(C)C)cc(c1O)C(c1ccccc1)c1cc(C(C)(C)C)cc(c1O)C2 (centres undefined)
GI50: > 100 µM (inactive)
--
molecule: O=C1c2ccccc2-c2c1c(-c1ccccc1)c1n2C2(C(=O)c3ccccc3C2=O)C2C(=O)N(c3ccccc3)C(=O)C12 (centres undefined)
GI50: 28.1 µM (inactive)
--
molecule: Cc1cc2nc(N3C(=O)/C(=C/c4cccc([N+](=O)[O-])c4)N=C3c3ccccc3)sc2cc1C
GI50: 71.1 µM (inactive)
--
molecule: OC(CC(CC(O)(C(F)(F)Cl)C(F)(F)Cl)=NNc1ccccc1)(C(F)(F)Cl)C(F)(F)Cl
GI50: 3.88 µM (inactive)
--
molecule: CCOP(=O)(CCC(O)CNc1nc(N)nc(Cl)c1/N=N/c1ccc(Cl)cc1)OCC (centres undefined)
GI50: 14.8 µM (inactive)
--
molecule: CCc1ccccc1NC(=O)CCc1nnc(S)[nH]1
GI50: > 100 µM (inactive)
--
molecule: COC(=O)C1=CNC(C(=O)OC)=NN1
GI50: > 100 µM (inactive)
--
molecule: COc1cc(OC)cc(OCc2ccc3nc(-c4ccccc4)c(Cl)nc3c2)c1
GI50: 20.2 µM (inactive)
--
molecule: CC(C)(C)OC(=O)NC1CCCCC1NC(=O)C(=O)NC1CCCCC1NC(=O)OC(C)(C)C (centres undefined)
GI50: 37.6 µM (inactive)
--
molecule: CC#CC(O)(C(=O)OCCCN(C)C)C1CCCCC1 (centres undefined)
GI50: > 100 µM (inactive)
--
molecule: CC(C)(Br)C(Br)CCC1(C(Br)CBr)CO1 (centres undefined)
GI50: > 10 µM (inactive)
--
molecule: O=C1Nc2cccc(Cl)c2/C1=C\c1c(-c2ccccc2)nc2n1CCS2
GI50: 13.2 µM (inactive)
--
molecule: COc1ccc(NC=O)c(C(O)CCNC(C)=O)c1 (centres undefined)
GI50: > 100 µM (inactive)
--
molecule: Cc1cc(Cl)ccc1NC(=O)C(=O)C(C(=O)c1ccc2ccccc2c1)C1OC(=O)c2ccccc21 (centres undefined)
GI50: > 10 µM (inactive)
--
molecule: CS(=O)(=O)Nc1ccc2c(c1)N(S(C)(=O)=O)CC2COS(C)(=O)=O (centres undefined)
GI50: 36.8 µM (inactive)
--
molecule: CCc1ccc(Cc2ccc(CC)c(NC(=O)C(=O)C3NC(=S)NC3=O)c2CC)c(CC)c1NC(=O)C(=O)C1NC(=S)NC1=O (centres undefined)
GI50: > 100 µM (inactive)
--
molecule: Cc1cc(NS(=O)(=O)c2ccc(NC(=O)c3cccc4c(Nc5ccc(S(=O)(=O)N=C(N)N)cc5)c5ccccc5nc34)cc2)no1
GI50: > 100 µM (inactive)

* * *

# Test system: SNB-19
# measurementDescription: NCI tumour cell line growth inhibition, 48 h
The source made the active and inactive calls. No stated cut-off is given here; in the data, active = GI50 up to about 1.1 µM and inactive = higher.
Possible outcomes: active, inactive

molecule: COc1ccc(-c2c3c(nc4nc(SC)nc(SC)c24)CCCC3)cc1OC
assignedClass: inactive
--
molecule: CSCCCNC(=O)c1csc(-c2csc(C(CNC(=O)OC(C)(C)C)CNC(=O)OC(C)(C)C)n2)n1
assignedClass: inactive
--
molecule: Nc1ccc(C(=O)CC(N)C(=O)O)cc1O (configuration not stated)
assignedClass: inactive
--
molecule: Cc1cc2[nH]c3c(C#N)c(-c4ccccc4)c(/C=N/c4ccc(Cl)cc4)c(=O)n3c2cc1C
assignedClass: inactive
--
molecule: C[C@H]1C2Cc3cc(O)ccc3[C@@]1(C)CCN2CCc1ccc(N)cc1
assignedClass: inactive
--
molecule: COc1ccc(-n2c(CCCC(=O)O)nc3c2C(=O)c2ccccc2C3=O)cc1
assignedClass: inactive
--
molecule: O=C1N(c2ccc(Cl)cc2)C(=O)C2(SC=NN2Cc2ccccc2)N1c1ccc(Cl)cc1 (configuration not stated)
assignedClass: inactive
--
molecule: CCCC1(N)CC(OC)OC(C)C1O (configuration not stated)
assignedClass: inactive
--
molecule: COC(=O)C1=CNC(C(=O)OC)=NN1
assignedClass: inactive
--
molecule: CC(C)Oc1c(C2(c3ccccc3)SCCCS2)c(=O)c1=O
assignedClass: inactive
--
molecule: O=S(=O)(c1cccc(C(F)(F)F)c1)N1c2ccccc2-n2cccc2C1c1cccnc1 (configuration not stated)
assignedClass: inactive
--
molecule: Cc1ccc(C(=O)/C=C2/Nc3ccc([N+](=O)[O-])cc3N/C2=C/C(=O)c2ccc(C)cc2)cc1
assignedClass: inactive
--
molecule: O=C1CN(c2cccc(Cl)c2)C(=O)CN1CCN1CC(=O)N(c2cccc(Cl)c2)CC1=O
assignedClass: inactive
--
molecule: CC1=NN(C(=O)CC(=O)Nc2cccc(Cl)c2)C(=O)C1/N=N\c1ccc(S(=O)(=O)c2ccc(/N=N/C3C(=O)N(C(=O)CC(=O)Nc4cccc(Cl)c4)N=C3C)cc2)cc1 (configuration not stated)
assignedClass: inactive
--
molecule: O=c1cc(-c2ccccc2)[nH]c2ccc(N3CCCCC3)cc12
assignedClass: active
--
molecule: Cc1ccnc2nc(-c3ccc(Cl)cc3)cc(O)c12
assignedClass: inactive
--
molecule: O=P(O)(O)CN1CCNCCN(CP(=O)(O)O)CCNCC1
assignedClass: inactive
--
molecule: COc1ccc(C2C=C(c3ccc4c(c3)OCO4)Oc3c2c(=O)oc2ccccc32)cc1OC (configuration not stated)
assignedClass: active
--
molecule: COc1cc(/C=C2\NC(=O)C3Cc4c(OC)c(C)c(OC)c(OC)c4C2N3C)c(OC)c(C)c1OC (configuration not stated)
assignedClass: inactive
--
molecule: O=C(CSc1nnc(-c2ccc(/N=C\c3ccc(Cl)cc3)cc2)o1)Nc1ccc([N+](=O)[O-])cc1
assignedClass: inactive
--
molecule: CCC1CC2C(=O)N(c3ccccc3)C(=O)C2c2[nH]c3ccccc3c21 (configuration not stated)
assignedClass: inactive
--
molecule: Cc1csc(NNC(=O)Nc2ccccc2)n1
assignedClass: inactive
--
molecule: CC1=CCCC(OC(N)=O)C1 (configuration not stated)
assignedClass: inactive
--
molecule: COc1ccc(/C=C(\Cl)c2ccc(OC)c(OC)c2)cc1OC
assignedClass: inactive
--
molecule: COc1ccc(CNc2nc(NCc3ccc(OC)cc3)nc(NC3CCCC3)n2)cc1
assignedClass: inactive
--
molecule: Cc1ccc(S(=O)(=O)NNCNC(=O)c2ccccc2)cc1
assignedClass: inactive
--
molecule: COc1cc2c(cc1Cc1c(F)cccc1Cl)nc(-c1c(F)cccc1Cl)n2Cc1c(F)cccc1Cl
assignedClass: inactive
--
molecule: CCOc1ccc2nc3nc(O)nc(C)c3c(NCCCN(CC)CC)c2c1
assignedClass: inactive
--
molecule: CCOC(=O)NN(C(=O)OCC)C(C(=O)c1ccccc1)N(NC(=O)OCC)C(=O)OCC
assignedClass: inactive
--
molecule: CN(C)CC1CCC/C(=C\c2ccc(OC(=O)/C=C/c3ccc(Cl)c(Cl)c3)cc2)C1=O (configuration not stated)
assignedClass: inactive
--
molecule: Fc1ccc(C(OCCN2CCC3CCC(C2)N3C/C=C/c2ccco2)c2ccc(F)cc2)cc1 (configuration not stated)
assignedClass: inactive
--
molecule: c1ccc2c(c1)-c1ccccc1C2NC1=NCCO1
assignedClass: inactive
--
molecule: Clc1ccc(C[P+]2(c3ccccc3)CCCCC2)cc1.[O-][Cl+3]([O-])([O-])[O-]
assignedClass: inactive
--
molecule: CSc1c(C#N)c(S)[nH]c(=O)c1C#N
assignedClass: inactive
--
molecule: CNC(=O)c1nn[nH]c1Sc1c([N+](=O)[O-])ncn1C
assignedClass: inactive
--
molecule: COc1cc(COC(=O)N2CSCC2C(=O)O)c([N+](=O)[O-])cc1OC (configuration not stated)
assignedClass: inactive
--
molecule: COc1ccc2nc(NC(=O)/C(C#N)=C/c3ccccc3)sc2c1
assignedClass: inactive
--
molecule: CCCc1c[nH]c(-c2ccc(-c3cc(CCC)c(C=O)[nH]3)s2)c1
assignedClass: inactive
--
molecule: Nc1c(C(=O)Nc2ccccc2O)[n+]([O-])c2ccccc2[n+]1[O-]
assignedClass: inactive
--
molecule: O=c1[nH]c(Nc2nc3ccccc3[nH]2)nc2c1CCC2
assignedClass: inactive
--
molecule: CCOC(=O)C(C(C)=O)C1CC=CC1 (configuration not stated)
assignedClass: inactive
--
molecule: Cc1cc(C)cc(-n2c3nc(=O)n(C)c(=O)c-3nc3ccccc32)c1
assignedClass: inactive
